self-cleavage by entry:
B1: CPEB3 Ribozyme (parent)
chain: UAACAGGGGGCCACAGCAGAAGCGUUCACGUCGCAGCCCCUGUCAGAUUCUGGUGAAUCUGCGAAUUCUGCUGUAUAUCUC

Variants of: B1
experiment description: self-cleavage, relative activity (ratio to wild type); higher = more cleavage; in vitro, sequencing
Returns: the value as a bare number; no unit string appended.

Asked: Could you share which self-cleavage value was measured for U51C U60C ?
Given back: 0.36

Asked: Could you share which self-cleavage value was measured for A28U C81U ?
Given back: 0.86

Asked: Could you share which self-cleavage value was measured for U31C A75C ?
Given back: 1.1

Asked: Could you share which self-cleavage value was measured for A47G U48A ?
Given back: 0.23

Asked: Could you share which self-cleavage value was measured for C12U U51A ?
Given back: 1.26

Asked: Could you share which self-cleavage value was measured for A28G U41G ?
Given back: 0.15

Asked: Could you share which self-cleavage value was measured for A5U U76C ?
Given back: 1.13

Asked: Could you share which self-cleavage value was measured for U54C U66C ?
Given back: 0.37

Asked: Could you share which self-cleavage value was measured for C40U U72A ?
Given back: 0.39

Asked: Could you share which self-cleavage value was measured for "C4G" ?
Given back: 1.1

Asked: Could you share which self-cleavage value was measured for A47U A64U ?
Given back: 0.26

Asked: Could you share which self-cleavage value was measured for G19U A65U ?
Given back: 0.09

Asked: Could you share which self-cleavage value was measured for U41A C81A ?
Given back: 0.22

Asked: Could you share which self-cleavage value was measured for U26A U48G ?
Given back: 0.37

Asked: Could you share which self-cleavage value was measured for A45G C79G ?
Given back: 1.12

Asked: Could you share which self-cleavage value was measured for A45G U49G ?
Given back: 0.1

Asked: Could you share which self-cleavage value was measured for A5U G52A ?
Given back: 1.1

Entry source: the RNAGym collection of RNA variant scans (doi:10.1093/nar/gkz1192)
